The measurements presented in this section are drawn from paper PMC6139374.

Molecular target: Akt1 (human, UniProt P31749 1-480)
Sequence (P31749 whole entry): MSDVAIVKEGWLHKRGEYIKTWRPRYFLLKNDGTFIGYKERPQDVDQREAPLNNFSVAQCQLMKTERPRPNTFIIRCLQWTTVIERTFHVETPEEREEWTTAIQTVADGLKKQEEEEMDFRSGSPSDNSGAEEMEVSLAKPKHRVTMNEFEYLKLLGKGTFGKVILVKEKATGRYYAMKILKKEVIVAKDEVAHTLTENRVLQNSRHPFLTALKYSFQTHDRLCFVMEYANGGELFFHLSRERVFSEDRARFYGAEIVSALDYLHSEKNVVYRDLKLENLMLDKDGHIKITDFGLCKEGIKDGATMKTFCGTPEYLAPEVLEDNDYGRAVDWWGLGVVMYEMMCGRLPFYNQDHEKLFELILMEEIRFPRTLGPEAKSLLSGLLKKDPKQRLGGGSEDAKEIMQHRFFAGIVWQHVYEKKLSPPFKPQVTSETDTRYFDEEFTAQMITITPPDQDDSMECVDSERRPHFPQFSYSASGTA
Test: kinase inhibition assay
Where no end group is shown, it is not given here. Side-chain parts run from the residue outwards. [ ]: non-standard residue; d: D form. Dap = NC[C@H](N)C(=O)O
readout: pKi
Here pKi is given on a logarithmic scale as minus log10 of the concentration in mol/L.

Enquiry: Look up pKi: GRPRTT[Dap]([Ac-ATP‑γS])FAE [GSK3 peptide-ATP conjugate bisubstrate analog]
Return: 5.44
